Molecular target: Ubiquitin carboxyl-terminal hydrolase 10 (Homo sapiens) (UniProt Q14694)
Sequence (Q14694 whole entry, looked up): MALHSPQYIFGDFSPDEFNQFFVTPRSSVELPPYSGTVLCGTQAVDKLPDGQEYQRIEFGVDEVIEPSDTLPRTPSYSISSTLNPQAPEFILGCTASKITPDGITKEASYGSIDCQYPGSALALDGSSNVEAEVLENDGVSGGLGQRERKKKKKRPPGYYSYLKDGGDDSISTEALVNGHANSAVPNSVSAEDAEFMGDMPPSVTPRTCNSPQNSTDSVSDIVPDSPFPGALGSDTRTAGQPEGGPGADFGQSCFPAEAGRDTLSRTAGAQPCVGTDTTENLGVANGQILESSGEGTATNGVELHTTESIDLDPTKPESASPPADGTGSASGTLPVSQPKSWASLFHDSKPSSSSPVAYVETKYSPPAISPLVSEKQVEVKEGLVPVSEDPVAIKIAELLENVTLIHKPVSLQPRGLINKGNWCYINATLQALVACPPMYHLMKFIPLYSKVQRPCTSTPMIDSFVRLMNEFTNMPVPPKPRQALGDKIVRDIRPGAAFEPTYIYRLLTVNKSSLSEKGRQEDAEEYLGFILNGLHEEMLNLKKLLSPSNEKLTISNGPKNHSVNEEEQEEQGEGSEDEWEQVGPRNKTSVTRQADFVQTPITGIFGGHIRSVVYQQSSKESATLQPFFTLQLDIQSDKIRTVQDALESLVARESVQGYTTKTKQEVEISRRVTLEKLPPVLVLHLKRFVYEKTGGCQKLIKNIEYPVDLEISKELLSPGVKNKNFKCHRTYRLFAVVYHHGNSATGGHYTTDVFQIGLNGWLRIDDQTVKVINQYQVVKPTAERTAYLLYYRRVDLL
Experiment: ubiquitin-specific protease 10 DUB inhibitors, concentration-effect, biochemical, verification of primary screen actives (AID 1645863);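 also: potency values describe inhibition of USP10 cleavage of a fluorogenic ubiquitin substrate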
Conditions: USP10 deubiquitinase enzymatic assay
Active and inactive are the calls of the source. No rule for the calls is given here.
Your response should consist of one outcome taken from 1 = active, -1 = inactive

Study these solved cases before continuing.
COMPOUND | ASSAYED_SYSTEM | CLASS_LABEL
O=C(CSc1ccc(-c2cccc([N+](=O)[O-])c2)nn1)Nc1cccc(F)c1 | Ubiquitin carboxyl-terminal hydrolase 10 (Homo sapiens) (UniProt Q14694) | 1
Cc1ccc(C(=O)c2cn(CC(=O)Nc3ccc(F)c(F)c3)c3ccc(F)cc3c2=O)cc1 | Ubiquitin carboxyl-terminal hydrolase 10 (Homo sapiens) (UniProt Q14694) | -1
CCC(C(=O)C(C)C(O)C(C)CCc1ccc(C)c(O)c1C(=O)O)C1OC(CC)(C2CCC(O)(CC)C(C)O2)CC1C (stereo unspecified) | Ubiquitin carboxyl-terminal hydrolase 10 (Homo sapiens) (UniProt Q14694) | 1

Query :: In this assay, the call recorded for `Cc1ccc(NC(=O)Nc2nnc(CC(=O)NCc3ccccc3)s2)c(Cl)c1` was what?
Result :: -1

Query :: I'd appreciate the recorded outcome for Cc1ccc(-n2nc(C)c3c2NC(=O)CC3C(=O)c2cc3ccccc3o2)cc1 (stereo unspecified) from this test.
Result :: -1

Query :: # fetch the recorded call for `COc1ccc(-c2cc(C(=O)Nc3ccnn3Cc3ccccc3)no2)cc1` here
Result :: -1

###

Below: a set of entries, each annotated with reported IC50.
Target: Ubiquitin carboxyl-terminal hydrolase 10 (Homo sapiens) (UniProt Q14694)
Experiment: ubiquitin-specific protease 10 DUB inhibitors, concentration-effect, biochemical, verification of primary screen actives (AID 1645863)
Settings: USP10 deubiquitinase enzymatic assay
Active and inactive are the calls of the source. No rule for the calls is given here.

Below are worked cases with known answers.
COMPOUND | ASSAYED_SYSTEM | IC50
Cc1cc(-c2ccc(S(=O)(=O)NCc3ccc(Cl)cc3)s2)on1 | Ubiquitin carboxyl-terminal hydrolase 10 (Homo sapiens) (UniProt Q14694) | > 40 µM (inactive)
Cc1cc(CN2CCCCC2c2cc(=O)n3ccnc3[nH]2)no1 (configuration not stated) | Ubiquitin carboxyl-terminal hydrolase 10 (Homo sapiens) (UniProt Q14694) | > 40 µM (inactive)
Oc1cccc2nc3c(O)cccc3nc12 | Ubiquitin carboxyl-terminal hydrolase 10 (Homo sapiens) (UniProt Q14694) | 11.3 µM
COc1ccc(-c2ccc3cc(C(=O)O)ccc3c2)cc1C12CC3CC(CC(C3)C1)C2 | Ubiquitin carboxyl-terminal hydrolase 10 (Homo sapiens) (UniProt Q14694) | 5.77 µM

Query :: Return reported IC50. Input compound: `CNc1ccc(-c2noc([C@@H]3CCCN3Cc3cccc(C#N)c3)n2)cn1`
Result :: > 40 µM (inactive)

Query :: Identify the reported IC50 for the following entry. CC(C)=CCOC(C)(C)[C@H]1OC2CC[C@@]3(C)C(CCC4Cc5c([nH]c6ccccc56)[C@@]43C)C23OC3[C@@H]1O (some centres not stated)
Result :: 10.6 µM

Query :: Name the recorded IC50 of the item Cc1nnc(NC(=O)C2CC(=O)N(CCc3ccc(F)cc3)C2)s1 (configuration not stated) in your answer.
Result :: > 40 µM (inactive)

###

Biological target: Ubiquitin carboxyl-terminal hydrolase 10 (Homo sapiens)
Experiment: ubiquitin-specific protease 10 DUB inhibitors, concentration-effect, biochemical, verification of primary screen actives (AID 1645863);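 also: potency values describe inhibition of USP10 cleavage of a fluorogenic ubiquitin substrate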
Conditions: USP10 deubiquitinase enzymatic assay
Active and inactive are the calls of the source. The rule behind the calls is not given here.
Each record here notes measured IC50.

// below: answered molecules
MOLECULE | VALUE_REPORTED
COc1cccc(CNC(=O)c2nnn(CC(=O)Nc3cc(C)ccc3C)c2N)c1 | 29.9 µM
CCOc1cccc(-c2noc(-c3nn(-c4ccccc4)ccc3=O)n2)c1 | > 40 µM (inactive)
COc1ccc(OC)c(-c2cn3ccn(-c4ccc(F)c(Cl)c4)c(=O)c3n2)c1 | 18.7 µM

Query :: Using known records, supply IC50 for `COc1ccc(-c2nc(-c3cc4cc(OC)ccc4[nH]c3=O)no2)cc1`
Result :: > 40 µM (inactive)

Query :: Give reported IC50 value for C=C1C=C(CCC(=O)O)C(=O)OC1/C=C/C=C/C (configuration not stated)
Result :: 3.91 µM

Query :: Entry `Nc1ccc2oc(-c3cccc(-c4nc5cc(N)ccc5o4)n3)nc2c1` needs its IC50 filled in; supply it.
Result :: 26.6 µM

Query :: Entry `O=C(CCn1c(=O)c2sccc2n(Cc2ccc([N+](=O)[O-])cc2)c1=O)NCc1ccccc1` needs its IC50 filled in; supply it.
Result :: > 40 µM (inactive)

###

Molecular target: Ubiquitin carboxyl-terminal hydrolase 10 (Homo sapiens) (UniProt Q14694)
Experiment: ubiquitin-specific protease 10 DUB inhibitors, concentration-effect, biochemical, verification of primary screen actives (AID 1645863);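 also: potency values describe inhibition of USP10 cleavage of a fluorogenic ubiquitin substrate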
Conditions: USP10 deubiquitinase enzymatic assay
Active and inactive are the calls of the source. How the calls were made is not given here.
Hello, when you answer, please use one of the following outcomes: active, inactive

Before answering, review these 5 worked examples.
MOLECULE | CLASS_LABEL
COc1ccc(-c2cc(-c3ccccc3)nc(SCC(N)=O)c2C#N)cc1OC | active
N#Cc1cccc(NC(=O)COC(=O)c2n[nH]c3ccccc23)c1 | active
Cc1cc(C)c(C#N)c(N2CCN(CCOc3ccc(Cl)cc3)CC2)n1 | inactive
CCCCCCCCC/C=C/C(=O)CCc1c(O)c(C=O)c2c(c1O)C(=O)OC2O (stereo not drawn) | active
COc1ccc(NC(=O)Cn2cc(C(=O)c3ccc(Cl)cc3)c(=O)c3cc(F)ccc32)cc1 | active

Query :: Per the assay record, what outcome was assigned to `COc1cc(C)cc2c1C(=O)c1c(cc(O)c(Cl)c1O)C2=O` ?
Result :: active

Query :: Record lookup: outcome of this test for `COc1cc2c(=O)n(Cc3ccccc3)c(=O)n(CC(=O)N3CCCc4ccccc43)c2cc1OC` ?
Result :: active

Query :: Hi team, can someone confirm the assay call for `CCc1nnc(C(=O)Nc2ccc(C(=O)NCc3ccc(OC(C)C)cc3)cc2)s1` ?
Result :: inactive

Query :: For `Cn1c2ccccc2c(=O)c2c(=O)n(Cc3ccco3)c(-c3ccccc3F)nc21` , what call appears in the results of this test?
Result :: active

Query :: GET /call?item= `Cc1nc(-c2ccc(Cl)cc2)oc1C(=O)Nc1ccc(Cl)cc1` returns the recorded outcome of this test.
Result :: active

Query :: State the result this test recorded for `O=c1[nH]cccc1NS(=O)(=O)c1ccc(F)cc1` .
Result :: inactive

Query :: For this molecule, state the assay outcome: `Cc1ccccc1-n1ccc2nc(N3CCCC3)ncc2c1=O`
Result :: inactive

Query :: Hey, what did the test say about `CCCc1nnc(NC(=O)c2cc(-c3ccccc3O)n[nH]2)s1` ?
Result :: inactive

Query :: Dear all, I need the recorded test outcome for `Cc1cccc(N2C(=O)/C(=C\c3cc(C#N)n(C)c3C)c3ccccc3C2=O)c1` , thank you.
Result :: active

Query :: Could you check what this test reported for `CN1C(=O)COc2cc(-c3noc(C(=O)NCc4ccc(F)cc4)n3)ccc21` ?
Result :: active

Query :: What was the test verdict on `CC1(C)Cc2c(c(-c3ccco3)nc3sc4c(SCCCc5ccccc5)ncnc4c23)CO1` ?
Result :: active

Query :: Look up the recorded call for O=C(Nc1ccccc1C(=O)NC1CCSC1)c1ccc([N+](=O)[O-])cc1 (stereo not drawn) in this test.
Result :: inactive

Query :: What was the test verdict on O=S1(=O)CCN(CC2CCCO2)c2c(Oc3ccccc3)nc(F)c(Cl)c21 (stereo not drawn) ?
Result :: inactive

Query :: Could you check what this test reported for CC(CCc1ccccc1)NC(=O)Cn1c(=O)c2cccn2c2ccccc21 (stereo not drawn) ?
Result :: inactive

Query :: Outcome? `CCn1cc2c(n1)c(=O)n(Cc1ccccc1)c(=O)n2CC(=O)Nc1ccc(C)cc1C`
Result :: active

Query :: Given `COc1ccc(-c2cc(-c3ccc(F)cc3)[nH]c(=O)c2C#N)cc1` , state the outcome it received in this test.
Result :: active

###

Molecular target: UniProt Q14694
Experiment: ubiquitin-specific protease 10 DUB inhibitors, concentration-effect, biochemical, verification of primary screen actives (AID 1645863);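 also: potency values describe inhibition of USP10 cleavage of a fluorogenic ubiquitin substrate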
Details: USP10 deubiquitinase enzymatic assay
The source made the active and inactive calls. How the calls were made is not given here.
VALUE_KIND: IC50

GIVEN_SMILES | VALUE_REPORTED
Cc1ccc(Cn2cc(-c3noc(C(=O)Nc4cc(F)ccc4F)n3)nn2)cc1 | 26.8 µM
COc1ccc(CCN2COc3c(cc(Cl)c4cccnc34)C2)cc1OC | > 40 µM (inactive)
O=C(Cn1c(-c2nc(-c3cccc(F)c3)no2)cccc1=O)NCc1ccco1 | > 40 µM (inactive)
CCc1ccc([C@@H]2c3c(C)nn(C)c3NC(=O)[C@H]2NC(=O)c2ccc(OC)c(OC)c2)cc1 | > 40 µM (inactive)
Cc1ccnc(NS(=O)(=O)c2ccc(NC(=O)c3ccc(S(=O)(=O)N(C)Cc4ccccc4)cc3)cc2)n1 | 35.4 µM
O=C(Nc1ccc(F)cc1F)c1cc(-c2ccccn2)n[nH]1 | > 40 µM (inactive)

Turning to the following compound.
Query :: Retrieve IC50 on UniProt Q14694; query `Cn1cc(-c2nc(C(=O)Nc3ccc(C#N)cc3)cs2)c2cccnc21`
Result :: > 40 µM (inactive)
